Item-by-item account of Kb
measured.target: 5-hydroxytryptamine receptor 6 (Homo sapiens)
assay: Binding affinity to human recombinant 5HT6 receptor expressed in CHO cells co-expressing pCRE-Luc gene assessed as modulation of serotonin-induced intracellular cAMP level after 4 hrs by luciferase based luminescence assay
Type: cell-based
metric.name: Kb (nM)

[
  {
    "compound": "CN1CC(Cl)=C(c2cn(S(=O)(=O)c3ccc(Br)cc3)c3ccccc23)C1",
    "test.value": 0.35
  },
  {
    "compound": "COc1ccc2c(c1)c(C1CCN(C)C1)cn2S(=O)(=O)c1ccc(C(C)C)cc1 (racemic)",
    "test.value": 0.1
  },
  {
    "compound": "CCN1CC(Cl)=C(c2cn(S(=O)(=O)c3ccc(Br)cc3)c3ccccc23)C1",
    "test.value": 3.9
  },
  {
    "compound": "CCN1CC(Cl)=C(c2cn(S(=O)(=O)c3ccc(Br)cc3)c3ccc(OC)cc23)C1",
    "test.value": 4.75
  },
  {
    "compound": "COc1ccc2c(c1)c(C1=C(Cl)CN(C)C1)cn2S(=O)(=O)c1cc(Cl)c(Cl)cc1Cl",
    "test.value": 18.4
  },
  {
    "compound": "CC(C)Oc1ccc2c(c1)c(C1=C(Cl)CN(C)C1)cn2S(=O)(=O)c1ccccc1",
    "test.value": 0.7
  },
  {
    "compound": "COc1ccc2c(c1)c(C1=C(Cl)CN(C)C1)cn2S(=O)(=O)c1ccc(F)cc1",
    "test.value": 0.63
  },
  {
    "compound": "CN1CCC(c2cn(S(=O)(=O)c3ccccc3)c3ccccc23)C1 (racemic)",
    "test.value": 1.52
  },
  {
    "compound": "CCOc1ccc2c(c1)c(C1=C(Cl)CN(C)C1)cn2S(=O)(=O)c1ccccc1Br",
    "test.value": 0.4
  },
  {
    "compound": "CCOc1ccc2c(c1)c(C1=C(Cl)CN(CC)C1)cn2S(=O)(=O)c1ccccc1Br",
    "test.value": 0.45
  },
  {
    "compound": "COc1ccc2c(c1)c(C1=C(Cl)CN(C)C1)cn2S(=O)(=O)c1ccccc1",
    "test.value": 0.1
  }
]
